# test.name: drug combination growth inhibition, ovarian cancer – cell-based, oncology-focused library, rucaparib conditional, profiling panel (AID 1508598)
# study.conditions: patient-derived ovarian cancer cells, CellTiter-Glo viability, 144 h; at 0.00122 µM; OCI-P5x cells; with rucaparib 20 µM; active compounds read low; 100% = cells with rucaparib alone
The source made the active and inactive calls.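 The calls were made as follows: active = normalized viability below 100% at a tested concentration; inactive = the rest.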
metric: viability

compound.structure	viability
OCCn1cc(-c2cnc3nnn(Cc4ccc5ncccc5c4)c3n2)cn1	106% (inactive)
Cn1cnc(=N)c2[nH]cnc21	100% (inactive)
C=CC(=O)Nc1cccc(Nc2nc(Nc3ccc(NC4CN(CCF)C4)cc3OC)ncc2C(F)(F)F)c1	99.4% (active)
Cc1cccc(-c2[nH]c(C(C)(C)C)nc2-c2ccc3nccnc3c2)n1	100% (active)
COc1cc2c(Oc3ccc4[nH]c(C)cc4c3F)ncnc2cc1OCCCN1CCCC1	105% (inactive)

As a next step, examine the molecule that follows.
# get_value(readout='viability', item= "C[C@@H]1CN(CC(=O)Nc2ccc3c(c2)Cc2cccc(-c4cc(=O)cc(N5CCOCC5)o4)c2S3)C[C@H](C)O1" )
108% (inactive)
